Provenance of the data: PubChem BioAssay

target_or_test_system: Tumor necrosis factor receptor superfamily member 10B (Homo sapiens)
assay_explanation: caspase-8 TRAIL sensitization, hit retest, confirmation, cell-based, NB7+caspase-8, with/without TRAIL, luminescence panel (AID 651596)
assay_conditions: NB7 neuroblastoma + caspase-8, TRAIL sensitization, luminescence viability, with TRAIL, mean of runs, at 10 µM, stronger effect = higher value
The label t is reserved for activity strictly under 80%; f covers values equal to or above it.

Exercise: Confirm or reject: activity of O=C(NC(=S)N1CCc2ccccc21)c1ccccc1 lies strictly below 80%
Solution: t

* * *

target_or_test_system: Tumor necrosis factor receptor superfamily member 10B (Homo sapiens) (UniProt O14763)
Sequence (O14763 whole entry, looked up): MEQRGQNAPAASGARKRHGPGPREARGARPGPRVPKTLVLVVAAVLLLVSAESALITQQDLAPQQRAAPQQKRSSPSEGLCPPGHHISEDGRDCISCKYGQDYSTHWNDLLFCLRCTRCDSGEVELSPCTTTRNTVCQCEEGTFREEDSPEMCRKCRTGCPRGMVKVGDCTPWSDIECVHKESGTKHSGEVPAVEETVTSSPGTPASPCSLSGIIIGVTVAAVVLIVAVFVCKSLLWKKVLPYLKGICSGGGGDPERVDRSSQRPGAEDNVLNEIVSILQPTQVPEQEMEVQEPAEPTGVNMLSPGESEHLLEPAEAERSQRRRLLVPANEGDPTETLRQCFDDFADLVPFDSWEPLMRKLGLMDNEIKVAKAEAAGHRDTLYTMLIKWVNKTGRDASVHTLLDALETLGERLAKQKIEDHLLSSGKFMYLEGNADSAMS
assay_explanation: TRAIL sensitizers in caspase-8 expressing neuroblastoma cells, dose response, NB7 cells plus caspase-8, luminescence, panel (AID 652002)
assay_conditions: NB7 neuroblastoma +caspase-8, TRAIL sensitization, luminescence viability, NB7+Caspase-8, with TRAIL, run 2; at 12.5 µM (top of the series)
measured_metric: activity, % sensitization (%)
# output: bare number, implied unit %

Cc1cc(N/N=C/c2ccccc2)nc(NCc2ccccc2)n1	39.6
Cc1ccn2cc(C(=O)Nc3ccc4c(c3)OCCO4)nc2c1	40.7

O=C(Nc1ccc(Br)cc1F)c1ccc2c(c1)OCCO2 tested on Tumor necrosis factor receptor superfamily member 10B (Homo sapiens) (UniProt O14763) gave activity, % sensitization: 39.5
